Test system: K4 kissing-loop RNA reporter;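 also: bound reporter read as fluorescence of individual clusters on recovered sequencing chips by microscopy, with normalized cluster intensities fitted with a binding model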
Assay: apparent KD of K4 kissing-loop reporter; higher = weaker reporter binding
Conditions: Eterna round: R107; input ligand: arginine 13.2 mM
For each record, write down the corresponding apparent KD of K4 kissing-loop reporter.
Numeric answer only, unit nM assumed.

I would be grateful if you could share the reported apparent KD of K4 kissing-loop reporter for UGGACCAGGAGUGAUGUUCCAAAAUGUGAUACCAGCCACGAAAGUGGCCCUUGGCAGCACUGCCAGGACGAAAACGUCCGGUCCU [#SwitchBubble 11 #StaticStem #K4Early] . 191

Now try AAAUUUAAUAUAUUUAAUUAAUUAUGUGAUACCAGACAUUUAUAAGUCCCUUGGCAGCACUUUGCAGUGAUGUUGCAUAUAAUAA [JR_SSTheophyA_Sub013] . 185

Now try UCACGUGCCAGUGAUGUUGGCGUACGUGAUACCAGAACAAUAAAGUUCCCUUGGCAGCACAAAUAUGCCAAGUUAGAUGUAUGAU [Exclusion Theophylline A GF 3] . 118

Now try AAGGUAUCACCAACUUGCAACAAAGGUGAUACCAGCAUCGAAAGAUGCCCUUGGCAGCACCAACUUGCAGUGAUGUUGCAAGUAA [(T)'-(H)'-(T1)-(T2)-(H1)-(H2)_Design10] . 161

Now try CAAUGAGUAUAAGAUGAUAUCAUCACAGAAGGAGCGAGUGAUAACUCAGGUAGGUCGCUGAAUUUAUCGAGUGAUGUUCGAUAGA [whbob_SS_Arginine_A_sa118] . 158

Now try GGAUUGCCAGUGAUGUUGGCAUAAACUGAAGGAGCGCGUGAAAACGCAGGUAGGUCGCAGAACCUUGCCAACUAUAUUAUUUACC [Ex Arginine A K4 22] . 137

Now try UAAUUUAUGUCUUUAAUAUAAUAAUCAGAUACCAGUGAUUAAUGACACCCUUGGCAGCUGUAUAGAGUGAUGUUCUUAUGCUUAA [JR_ExcTheophyA_Sub010] . 316

Now try GUCAGACCGGGACUCCAGUGAUGUUGGAGGCAGGAUAUCCAGUCGAGGAGAAGGGCCAGGGAUAUCGAGCUGCUCGGUUUGUAGU [Xexezaes] . 108

Now try AAAAUAAAGCAGUCAAUCGGAGUGAUGUUCCGAGGACCGGUACGGCCGCCACUCGAGAGUCCAAAGGACUCAUGGCGAGACUGCA [#SwitchBubble 17 #K4Early] . 94.8

Now try CACGAUGAAUUCUCUAGGAGUGAUGUUUUUCGAGGACCGGUACGGCCGCCACUCGGACGACGAGCGUGGUAGCGGCGUGAAGACU [zamullin] . 276

Now try AACCACUCGUUACAUCACUAUCGAGUGGAACGAGGACCGGUACGGCCGCCACUCGGUAACAAGCAGUGAUGUUGCUUGUAAGAAU [KL-SSTryp-A (BrourdMod)2 #dotplot2 strengthened] . 252

Now try CCGGGCGGCCGAAGGAGCGGGCGGACCCGAGUGAUGUUCGGGUGGACCGUGAGGUCCGGUGCCCAGGUAGGUCGCGGUUCCGCCC [#2 Same State - Arginine B Attempt #5 (HarryS)] . 123

Now try ACUUAUUGUGUCGAUACCAGCAGGUGACGACGCCUCAUGGCUGACGAGUGAUGUUCGACUUGCCCUUGGCAGCGACAUACGCCGG [theeternabot_sameState_KL_Theo_B_12] . 228

Now try UGUAAGCGCGUAGAUACCAGCAAACAAAGAGUGAUGUUCAGAUUAAGGAAAAGAAAGUAAUGCCCUUGGCAGCUAAUCAUAAGCG [Theophylline B Exclusion; Euphoria Solution] . 409

Now try `AAGCAGUCACUCAAAGCCAUCGAAGAUGGACGAGGACCGGUACGGCCGCCACUCGGAGUGAUGUUCCGAAGACUGCAAAAUAAAA` . 295

Now try AAUGUACAGGGAAGGAGCGUAGUCCAGUGAUGUUGGAAUUAAAUUCCUGUGAUGUUGGUUAUACAGGUAGGUCGCCCUAAAGUGC [KL-XARG-B21] . 92.2

Now try GAGAAUAACGGAAGGAGCGAGUAAUGGAGUGAUGUUCCAAUCAAUAAAACACAAUAAAAUACUCAGGUAGGUCGCCGUAGUAGUU [Exclusion Argiie B GF 12] . 339

Now try `UGAUAGGACAGAAGGAGCGGUAGUGAUGUUGCCAAAAGAAUAAGGUGUCAAAAGACACCCUGCCAGGUAGGUCGCUGUCCUAUCU` . 189

Now try ACACGCAACUAUAGACCAGUGAUGUUGGAACGAGGACCGGUACGGCCGCCACUCGAGCGGACGAUCUACGCCUCUUAUGCUAACG [theeternabot_exclusion_KL_Trp_A_15] . 481

Now try UAUUAAUAUUUUUCAGUGAUGUUAAUUGAUACCAGCCCGAAACCGGGCCCUUGGCAGCGAGUGAUGUUGGUUGUCAGCAUAAAUA [KL-XTheo-A13] . 596

Now try AAACGUUGGUCGGAUACCAGUUAGACCGAUAAGGUCAAAACUGGAGUGAUGUUCCCAAAUAACCCUUGGCAGCCGACCGACGAAA [MAT - Same State Theophlline B - Mod of Eli - D12] . 126

Now try CGCAGUGAUGUUGCUAUUAUUCUUGAUUAACGAGGACCGGUACGGCCGCCACUCGAUUUCUAUCUGAUCCAGUGUUUUGUUGAGU [#22 K4 Tryptophan A Exclusion] . 364
